// reported pEC50 per item
system_name: Hexokinase-4 (Homo sapiens)
Sequence (P35557 whole entry): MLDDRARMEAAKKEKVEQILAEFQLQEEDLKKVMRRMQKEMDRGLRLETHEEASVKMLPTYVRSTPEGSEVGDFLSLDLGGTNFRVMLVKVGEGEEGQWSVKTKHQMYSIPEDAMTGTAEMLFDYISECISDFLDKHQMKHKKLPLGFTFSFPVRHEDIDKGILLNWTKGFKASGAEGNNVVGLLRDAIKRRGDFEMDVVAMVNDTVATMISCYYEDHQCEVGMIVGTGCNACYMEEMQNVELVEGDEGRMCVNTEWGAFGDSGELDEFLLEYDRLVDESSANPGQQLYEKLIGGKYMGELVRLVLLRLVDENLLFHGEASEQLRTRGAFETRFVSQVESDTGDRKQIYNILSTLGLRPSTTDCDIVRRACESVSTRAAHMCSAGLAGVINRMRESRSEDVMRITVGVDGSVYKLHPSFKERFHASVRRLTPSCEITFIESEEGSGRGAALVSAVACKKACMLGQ
assay_details: Activation of flag-tagged human recombinant liver glucokinase expressed in Escherichia coli by glucose-6-phosphate dehydrogenase coupled continuous spectrophotometric assay in presence of 10 mM glucose
Note on units: pEC50 is unitless, being -log10 of a concentration expressed in mol/L.

compound	pEC50
Cc1csc(NC(=O)c2cc(Oc3ccc(S(C)(=O)=O)cc3)cc(OC(C)C(=O)O)c2)n1 (racemic)	5.13

Form field pEC50 for item "CS(=O)(=O)c1ccc(Oc2cc(O[C@@H]3CCOC3)cc(C(=O)Nc3nccs3)c2)cc1" on Hexokinase-4 (Homo sapiens): 6.52

Form field, pEC50 with Hexokinase-4 (Homo sapiens), item CS(=O)(=O)c1ccc(Oc2cc(O[C@H]3CCC[C@H]3O)cc(C(=O)Nc3nccs3)c2)cc1 (racemic) : 6.92

COCC(C)Oc1cc(Oc2ccc(S(C)(=O)=O)cc2)cc(C(=O)Nc2nccs2)c1 (racemic) tested on Hexokinase-4 (Homo sapiens) gave pEC50: 7.15

====

assay_details: Volume of distribution at steady state in Beagle dog at 0.3 mg/kg, iv
Type: ADME, organism-based, Canis lupus familiaris
Parameters: dose 0.3 mg/kg, route intravenous
condition_info: in vivo, read-out: Vdss
value_type: Vd (L/kg)
Field format: number, assumed L/kg, no unit text.

What the record says about "C[C@@H](CO)Oc1cc(Oc2ccc(S(C)(=O)=O)cc2)cc(C(=O)Nc2nccs2)c1" : Vd is 1.56

====

system_name: Hexokinase-4 (Homo sapiens)
assay_details: Activation of flag-tagged human recombinant liver glucokinase expressed in Escherichia coli by glucose-6-phosphate dehydrogenase coupled continuous spectrophotometric assay in presence of 10 mM glucose
value_type: pEC50
Note on pEC50: it is the negative log10 of concentration, concentration in mol/L.

Answered cases to consult:
molecule	pEC50
CS(=O)(=O)c1ccc(Oc2cc(O[C@H]3CCC[C@@H]3O)cc(C(=O)Nc3nccs3)c2)cc1 (stereo in doubt; 6j)	7.05
CS(=O)(=O)c1ccc(Oc2cc(OCCO)cc(C(=O)Nc3nccs3)c2)cc1	6.70
CS(=O)(=O)c1ccc(Oc2cc(O[C@H]3CCC[C@@H]3O)cc(C(=O)Nc3nccs3)c2)cc1 (stereo in doubt)	6.77

Below: the item to evaluate.
Recorded pEC50 (molecule CCC(COC)Oc1cc(Oc2ccc(S(C)(=O)=O)cc2)cc(C(=O)Nc2nccs2)c1 (racemic) ): 7.22

====

system_name: Hexokinase-4 (Homo sapiens, UniProt P35557)
Sequence (P35557 whole entry): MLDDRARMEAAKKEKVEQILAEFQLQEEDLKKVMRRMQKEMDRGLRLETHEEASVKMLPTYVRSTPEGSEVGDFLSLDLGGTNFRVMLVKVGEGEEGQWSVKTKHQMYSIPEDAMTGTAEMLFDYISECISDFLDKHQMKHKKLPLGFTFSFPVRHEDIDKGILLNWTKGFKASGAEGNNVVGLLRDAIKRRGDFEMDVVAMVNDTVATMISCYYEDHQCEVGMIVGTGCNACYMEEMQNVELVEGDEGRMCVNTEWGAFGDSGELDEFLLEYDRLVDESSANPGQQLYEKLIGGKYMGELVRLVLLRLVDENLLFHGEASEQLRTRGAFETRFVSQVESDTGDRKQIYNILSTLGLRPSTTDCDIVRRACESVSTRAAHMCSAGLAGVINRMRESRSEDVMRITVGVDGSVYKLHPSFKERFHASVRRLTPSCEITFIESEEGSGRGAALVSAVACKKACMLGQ
assay_details: Activation of flag-tagged human recombinant liver glucokinase expressed in Escherichia coli by glucose-6-phosphate dehydrogenase coupled continuous spectrophotometric assay in presence of 2.5 mM glucose
value_type: pEC50
# pEC50 = -log10(concentration in molar units)

Some entries whose results are on file:
compound	pEC50
CS(=O)(=O)c1ccc(Oc2cc(O[C@H]3CCC[C@H]3O)cc(C(=O)Nc3nccs3)c2)cc1 (racemic)	6.34
CC(CO)Cc1cc(Oc2ccc(S(C)(=O)=O)cc2)cc(C(=O)Nc2nccs2)c1 (racemic)	6.12
CS(=O)(=O)c1ccc(Oc2cc(O[C@H]3CCC[C@H]3O)cc(C(=O)Nc3nccs3)c2)cc1	6.59
CC(C)Oc1cc(Oc2ccc(S(C)(=O)=O)cc2)cc(C(=O)Nc2nccs2)c1	6.77
CS(=O)(=O)c1ccc(Oc2cc(O[C@@H]3CCC[C@@H]3O)cc(C(=O)Nc3nccs3)c2)cc1	5.47

Entry CS(=O)(=O)c1ccc(Oc2cc(O[C@H]3CCC[C@@H]3O)cc(C(=O)Nc3nccs3)c2)cc1 (stereo in doubt; 6j) — recorded pEC50 = 6.80

Reported pEC50 for "CS(=O)(=O)c1ccc(Oc2cc(O[C@H]3CCOC3)cc(C(=O)Nc3nccs3)c2)cc1" was 6.72

Recorded result, "COCC(COC)Oc1cc(Oc2ccc(S(C)(=O)=O)cc2)cc(C(=O)Nc2nccs2)c1" , pEC50: 6.21

response.value for "CS(=O)(=O)c1ccc(Oc2cc(OC3CCOCC3)cc(C(=O)Nc3nccs3)c2)cc1" (field: pEC50) = 6.34

pEC50 for "Cn1cnnc1Sc1ccc(N)c(C(=O)Nc2nccs2)c1" is 6.38

Form: compound = "CS(=O)(=O)c1ccc(Oc2cc(OC3CCCC3)cc(C(=O)Nc3nccs3)c2)cc1" ; pEC50 = 6.31

For reference, reported pEC50 for CS(=O)(=O)c1ccc(Oc2cc(OC(CO)C(F)(F)F)cc(C(=O)Nc3nccs3)c2)cc1 (racemic) stands at 6.10

What the record says about CS(=O)(=O)c1ccc(Oc2cc(O[C@H]3CCC[C@@H]3O)cc(C(=O)Nc3nccs3)c2)cc1 (stereo in doubt) : pEC50 is 6.55

response.value for "CS(=O)(=O)c1ccc(Oc2cc(O[C@@H]3CCOC3)cc(C(=O)Nc3nccs3)c2)cc1" (field: pEC50) = 5.74

The recorded pEC50 for CC(CN(C)C)Oc1cc(Oc2ccc(S(C)(=O)=O)cc2)cc(C(=O)Nc2nccs2)c1 (racemic) is 4.92

Entry CC(C)C(CO)Oc1cc(Oc2ccc(S(C)(=O)=O)cc2)cc(C(=O)Nc2nccs2)c1 (racemic) ; pEC50 = 6.44

For this compound ( CS(=O)(=O)c1ccc(Oc2cc(OC3CCNC3)cc(C(=O)Nc3nccs3)c2)cc1 (racemic) ), measured pEC50 is 4.74

====

assay_details: Cmax in Beagle dog at 1 mg/kg, po
Assay type: ADME, organism-based, Canis lupus familiaris
Design: dose 1 mg/kg, route oral
condition_info: in vivo
value_type: Cmax (nM)
Use nM as the unit, but write only the number.

Form field Cmax, entry "C[C@@H](CO)Oc1cc(Oc2ccc(S(C)(=O)=O)cc2)cc(C(=O)Nc2nccs2)c1" : 800

====

logD listing for selected molecules.
assay_details: Octanol-water distribution coefficient, log D at pH 7.4 by HPLC-MS analysis
Could you respond with only the numeric value?

Observe how each entry below is paired with its result.
molecule	logD
CS(=O)(=O)c1ccc(Oc2cc(O[C@H]3CCC[C@H]3O)cc(C(=O)Nc3nccs3)c2)cc1 (racemic)	3.4
CS(=O)(=O)c1ccc(Oc2cc(OCCO)cc(C(=O)Nc3nccs3)c2)cc1	2.4
CS(=O)(=O)c1ccc(Oc2cc(OC3CCOCC3)cc(C(=O)Nc3nccs3)c2)cc1	4.1
CC(CN)Oc1cc(Oc2ccc(S(C)(=O)=O)cc2)cc(C(=O)Nc2nccs2)c1 (racemic)	1.1

Attention now shifts to the item below.
The recorded logD for COCC(C)Oc1cc(Oc2ccc(S(C)(=O)=O)cc2)cc(C(=O)Nc2nccs2)c1 (racemic) is 4

====

assay_details: Cmax in Sprague-Dawley rat at 3 mg/kg, po
Type: ADME, organism-based
Set-up: dose 3 mg/kg, route oral
condition_info: in vivo
value_type: Cmax (µM)
The figure you give is taken to be in µM; do not add the unit.

Record "C[C@@H](CO)Oc1cc(Oc2ccc(S(C)(=O)=O)cc2)cc(C(=O)Nc2nccs2)c1" . Reported Cmax: 3.4
